PROCEDURE_DETAILS: A549 lung cancer cell viability effects, profiling panel, resazurin fluorescence, 24 h, PK04 Diversity Set (AID 1171); note: test concentration not given here
ASSAY_CONTEXT: higher = more signal, called active from +8 up or from −8 down
VALUE_TYPE: z-score
Please state the value as a number alone, without comment.

Solved cases below.
INSERT INTO assay_data (compound, value_type, value) VALUES
  ('CC(C)C(=C=CC[C@@H](O)c1ccc(CO)o1)CCO', 'z-score', 1.37),
  ('O=C1c2ccccc2[C@@]2(Cc3ccccc3N(CC(F)(F)F)C2=O)[C@H](c2ccc(CO)cc2)N1Cc1ccccc1C(F)(F)F', 'z-score', -0.203),
  ('CCOC(=O)C[C@H]1[C@H](OC(=O)c2ccc(C(=O)c3ccccc3)cc2)[C@@H](NC(=O)Cc2ccc(OC)cc2)c2cc(OCCCO)ccc2N1C(=O)Cc1ccc(OC)cc1', 'z-score', 1.54);

Incoming: Endpoint output: z-score of COCCCNC(=O)[C@@]1(Cc2ccccc2)N=C(c2ccc(OCCCO)cc2)O[C@H]1c1ccccc1N=[N+]=[N-] . Value?
Outgoing: -1.83

Incoming: Endpoint output: z-score of C=CCC(OC(C)=O)[C@@H]1[C@@H](N(Cc2cc3ccccc3o2)C(=O)c2ccc(-c3ccccc3)cc2)c2cc(OCCCO)ccc2N1C(=O)c1ccc(-c2ccccc2)cc1 (some centres undefined) . Value?
Outgoing: 1.15

Incoming: Endpoint output: z-score of COc1ccc(C(=O)Nc2cccc(CN3C(=O)[C@@]4(O[C@@H](CCO)[C@H]([Si](C)(C)c5ccc(OC)cc5)[C@H]4C)c4ccccc43)c2)cc1 . Value?
Outgoing: -5.62
